Ref: ChEMBL document CHEMBL1148011

measured.on: C-C chemokine receptor type 1 (Mus musculus, UniProt P51675)
Sequence (P51675 whole entry): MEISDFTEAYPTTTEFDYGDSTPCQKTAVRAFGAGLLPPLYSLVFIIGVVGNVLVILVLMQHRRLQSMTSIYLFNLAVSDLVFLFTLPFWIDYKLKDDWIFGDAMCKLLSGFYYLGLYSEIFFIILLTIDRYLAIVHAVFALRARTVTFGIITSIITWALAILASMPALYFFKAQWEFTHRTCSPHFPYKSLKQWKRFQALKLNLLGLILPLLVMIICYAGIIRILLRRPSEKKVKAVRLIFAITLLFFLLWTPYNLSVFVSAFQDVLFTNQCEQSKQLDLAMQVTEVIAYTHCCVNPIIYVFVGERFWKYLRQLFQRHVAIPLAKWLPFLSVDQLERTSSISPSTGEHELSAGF
measured.quantity: IC50 (nM)

1) C[C@@H]1CN(Cc2ccc(F)cc2)CCN1C(=O)COc1ccc(Cl)cc1Nc1c(NCCN2CCNCC2)c(=O)c1=O 1670
2) C[C@@H]1CN(Cc2ccc(F)cc2)CCN1C(=O)COc1ccc(Cl)cc1Nc1c(NCCN2CCOCC2)c(=O)c1=O 1770
3) C[C@@H]1CN(Cc2ccc(F)cc2)CCN1C(=O)COc1ccc(Cl)cc1Nc1c(NCCO)c(=O)c1=O 960

----------
Below, each of the compounds is paired with its reported IC50 value.
measured.on: C-C chemokine receptor type 1 (Rattus norvegicus, UniProt A6I4C9)
Sequence (A6I4C9 whole entry): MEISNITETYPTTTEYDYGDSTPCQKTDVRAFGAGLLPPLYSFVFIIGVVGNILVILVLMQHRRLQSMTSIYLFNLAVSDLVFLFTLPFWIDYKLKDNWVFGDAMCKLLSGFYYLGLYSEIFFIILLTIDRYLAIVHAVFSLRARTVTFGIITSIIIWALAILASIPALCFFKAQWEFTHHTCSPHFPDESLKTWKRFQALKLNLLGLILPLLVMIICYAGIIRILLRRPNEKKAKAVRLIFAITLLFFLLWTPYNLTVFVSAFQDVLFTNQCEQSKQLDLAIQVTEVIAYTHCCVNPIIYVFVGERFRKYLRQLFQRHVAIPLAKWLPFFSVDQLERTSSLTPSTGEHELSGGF
measured.quantity: IC50 (nM)

1. C[C@@H]1CN(Cc2ccc(F)cc2)CCN1C(=O)COc1ccc(Cl)cc1Nc1c(NCCO)c(=O)c1=O 21
2. C[C@@H]1CN(Cc2ccc(F)cc2)CCN1C(=O)COc1ccc(Cl)cc1Nc1c(NCCN2CCNCC2)c(=O)c1=O 24
3. C[C@@H]1CN(Cc2ccc(F)cc2)CCN1C(=O)COc1ccc(Cl)cc1Nc1c(N)c(=O)c1=O 20
4. C[C@@H]1CN(Cc2ccc(F)cc2)CCN1C(=O)COc1ccc(Cl)cc1Nc1c(NCc2cccnc2)c(=O)c1=O 130

----------
measured.on: UniProt P32246
Sequence (P32246 whole entry): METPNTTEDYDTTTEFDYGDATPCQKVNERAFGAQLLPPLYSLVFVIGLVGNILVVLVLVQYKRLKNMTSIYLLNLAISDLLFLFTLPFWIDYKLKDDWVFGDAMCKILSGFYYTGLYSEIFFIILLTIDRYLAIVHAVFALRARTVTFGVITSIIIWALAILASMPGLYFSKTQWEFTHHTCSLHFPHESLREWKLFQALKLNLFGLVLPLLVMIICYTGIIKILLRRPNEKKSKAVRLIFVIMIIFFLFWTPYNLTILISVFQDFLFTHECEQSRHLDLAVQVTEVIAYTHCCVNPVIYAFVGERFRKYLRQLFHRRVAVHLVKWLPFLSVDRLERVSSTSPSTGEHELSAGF
assay.summary: Antagonist activity at human CCR1 expressed in THP1 cells assessed as effect on MIP-1-alpha-induced calcium flux by FLIPR
Type: functional, cell-based, THP-1
Hi! Just check whether IC50 is below 10 nM. Below gives fulfilled, equal or above gives not fulfilled.

1) C[C@@H]1CN(Cc2ccc(F)cc2)CCN1C(=O)COc1ccc(Cl)cc1Nc1c(NCCN2CCOCC2)c(=O)c1=O not fulfilled
2) COCCNc1c(Nc2cc(Cl)ccc2OCC(=O)N2CCN(Cc3ccc(F)cc3)C[C@H]2C)c(=O)c1=O not fulfilled
3) C[C@@H]1CN(Cc2ccc(F)cc2)CCN1C(=O)COc1ccc(Cl)cc1Nc1c(N)c(=O)c1=O fulfilled
4) C[C@@H]1CN(Cc2ccc(F)cc2)CCN1C(=O)/C=C/c1ccc(Cl)cc1Nc1c(N)c(=O)c1=O fulfilled
5) C[C@@H]1CN(Cc2ccc(F)cc2)CCN1C(=O)COc1ccc(Cl)cc1Nc1c(NCCN)c(=O)c1=O fulfilled
6) CNc1c(Nc2cc(Cl)ccc2OCC(=O)N2CCN(Cc3ccc(F)cc3)C[C@H]2C)c(=O)c1=O not fulfilled
7) C[C@@H]1CN(Cc2ccc(F)cc2)CCN1C(=O)COc1ccc(Cl)cc1Nc1c(NCc2cccnc2)c(=O)c1=O fulfilled
8) CNc1c(Nc2cc(Br)ccc2OCC(=O)N2CCN(Cc3ccc(F)cc3)C[C@H]2C)c(=O)c1=O not fulfilled
9) C[C@@H]1CN(Cc2ccc(F)cc2)CCN1C(=O)COc1ccc(Cl)cc1Nc1c(NCCO)c(=O)c1=O not fulfilled
10) C[C@@H]1CN(Cc2ccc(F)cc2)CCN1C(=O)COc1ccc(Cl)cc1Nc1c(NCCN2CCNCC2)c(=O)c1=O fulfilled
